Measured half-life at 100 µM, listed per entry for reference.
System: Streptomyces griseus protease
Test: Stability of compound in PBS at pH 7.4 assessed as Streptomyces griseus protease mediated degradation by measuring half life at 100 uM measured after 120 mins by RP UPLC analysis
Assay type: ADME
Where a SMILES comes first, the peptide text is derived from it. Bridges are numbered along the chain shown (N, C = ends). Triazole bridges read from a SMILES are 1,4-linked. [ ]: non-standard residue; d: D form. Lys(N3) = [N-]=[N+]=NCCCC[C@H](N)C(=O)O; Pra = C#CC[C@H](N)C(=O)O

Consider the following illustrative entries.
- MOLECULE: "NCCCC[C@@H]1NC(=O)[C@H](Cc2ccc(O)cc2)NC(=O)[C@@H](NC(=O)[C@@H]2CCCN2C(=O)[C@H](CC(N)=O)NC(=O)[C@H](CCC(=O)O)NC(=O)[C@H](Cc2ccc(O)cc2)NC(=O)CNC(=O)[C@@H](N)CC(N)=O)CCCCNC(=O)C[C@@H](C(=O)N[C@@H](CCC(=O)O)C(=O)O)NC(=O)[C@H](Cc2ccccc2)NC1=O (H-NGYENPKYKFDE-OH; lactam 7-11)"
  half-life at 100 µM: "27 min"
- MOLECULE: "C[C@@]1(C(=O)N[C@@H](CCC(=O)O)C(=O)O)CCC/C=C\\CCC[C@](C)(NC(=O)[C@@H]2CCCN2C(=O)[C@H](CC(N)=O)NC(=O)[C@H](CCC(=O)O)NC(=O)[C@@H](Cc2ccc(O)cc2)NC(=O)CNC(=O)[C@H](N)CC(N)=O)C(=O)N[C@@H](Cc2ccc(O)cc2)C(=O)N[C@@H](CCCCN)C(=O)N[C@@H](Cc2ccccc2)C(=O)N1"
  half-life at 100 µM: "> 120 min"

If you can, please state the reported half-life at 100 µM value of NCCCC[C@@H]1NC(=O)[C@H](Cc2ccc(O)cc2)NC(=O)[C@@H](NC(=O)[C@@H]2CCCN2C(=O)[C@H](CC(N)=O)NC(=O)[C@H](CCC(=O)O)NC(=O)[C@H](Cc2ccc(O)cc2)NC(=O)CNC(=O)[C@@H](N)CC(N)=O)CCCCn2cc(nn2)C[C@@H](C(=O)N[C@@H](CCC(=O)O)C(=O)O)NC(=O)[C@H](Cc2ccccc2)NC1=O (H-NGYENP[Lys(N3)]YKF[Pra]E-OH; triazole 7-11) .
20 min

Origin of measurements: ChEMBL document CHEMBL5380799
